Recorded optical density by entry
Biological target: mouse ACVR2A (mouse, UniProt P27038 20-135, limits assumed); further: test concentration or dose not given here
Sequence (P27038 20-135 limits assumed): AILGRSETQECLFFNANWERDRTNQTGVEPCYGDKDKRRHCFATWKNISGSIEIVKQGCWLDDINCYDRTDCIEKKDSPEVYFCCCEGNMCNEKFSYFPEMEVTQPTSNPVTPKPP
Test: ELISA
Number in OD, nothing else.

{"columns": ["BINDER", "DISPLAY_UNIT", "optical density"],
 "data": [
  ["366_A02 (antibody, V domains shown, Group I) VH: EVQLLESGGGLVQPGGSLRLSCAASGFTFDSYGMNWVRQAPGKGLEWVASINYNSGYKGYADSVKGRFTISRDNSKNTLYLQMNSLRAEDTAVYYCARAANWHDTHLDYWGQGTLVTVSS VL: DIQMTQSPSSLSASVGDRVTITCRASQSIVSYVNWYQQKPGKAPKLLIYAATSRASGVPSRFSGSGSGTDFTLTISSLQPEDFATYYCQQSYDLPLTFGGGTKVEIK", "OD", 2.69],
  ["368_C07 (antibody, V domains shown, Group II) VH: EVQLLESGGGLVQPGGSLRLSCAASGFTFSSYGMHWVRQAPGKGLEWVAGINYNSGYTSYADSVKGRFTISRDNSKNTLYLQMNSLRAEDTAVYYCARAATWHDTHLDYWGQGTLVTVSS VL: DIQMTQSPSSLSASVGDRVTITCRASQSIVSYVNWYQQKPGKAPKLVIYAATSRASGVPSRFSGSGSGTDFTLTISSLQPEDFATYYCQQSYENPLTFGGGTKVEIK", "OD", 2.37]
]}

Proceeding to the next binder to report its optical density.
Ask: Given the binder 368_A02 (antibody, V domains shown, Group I) VH: EVQLLESGGGLVQPGGSLRLSCAASGFTFDSYGMNWVRQAPGKGLEWVAGINYNGGYKSYADSVKGRFTISRDNSKNTLYLQMNSLRAEDTAVYYCARAANWHDTHLDYWGQGTLVTVSS VL: DIQMTQSPSSLSASVGDRVTITCRASQSIISYVNWYQQKPGKAPKLVIYAATSRASGVPSRFSGSGSGTDFTLTISSLQPEDFATYYCQQSYDTPLTFGGGTKVEIK , what is its reported optical density?
Result: 2.74
